# measured on: Human α2δ-1 subunit of Cav2.2 calcium channel (Homo sapiens)
# Sequence (P54289 25-1103): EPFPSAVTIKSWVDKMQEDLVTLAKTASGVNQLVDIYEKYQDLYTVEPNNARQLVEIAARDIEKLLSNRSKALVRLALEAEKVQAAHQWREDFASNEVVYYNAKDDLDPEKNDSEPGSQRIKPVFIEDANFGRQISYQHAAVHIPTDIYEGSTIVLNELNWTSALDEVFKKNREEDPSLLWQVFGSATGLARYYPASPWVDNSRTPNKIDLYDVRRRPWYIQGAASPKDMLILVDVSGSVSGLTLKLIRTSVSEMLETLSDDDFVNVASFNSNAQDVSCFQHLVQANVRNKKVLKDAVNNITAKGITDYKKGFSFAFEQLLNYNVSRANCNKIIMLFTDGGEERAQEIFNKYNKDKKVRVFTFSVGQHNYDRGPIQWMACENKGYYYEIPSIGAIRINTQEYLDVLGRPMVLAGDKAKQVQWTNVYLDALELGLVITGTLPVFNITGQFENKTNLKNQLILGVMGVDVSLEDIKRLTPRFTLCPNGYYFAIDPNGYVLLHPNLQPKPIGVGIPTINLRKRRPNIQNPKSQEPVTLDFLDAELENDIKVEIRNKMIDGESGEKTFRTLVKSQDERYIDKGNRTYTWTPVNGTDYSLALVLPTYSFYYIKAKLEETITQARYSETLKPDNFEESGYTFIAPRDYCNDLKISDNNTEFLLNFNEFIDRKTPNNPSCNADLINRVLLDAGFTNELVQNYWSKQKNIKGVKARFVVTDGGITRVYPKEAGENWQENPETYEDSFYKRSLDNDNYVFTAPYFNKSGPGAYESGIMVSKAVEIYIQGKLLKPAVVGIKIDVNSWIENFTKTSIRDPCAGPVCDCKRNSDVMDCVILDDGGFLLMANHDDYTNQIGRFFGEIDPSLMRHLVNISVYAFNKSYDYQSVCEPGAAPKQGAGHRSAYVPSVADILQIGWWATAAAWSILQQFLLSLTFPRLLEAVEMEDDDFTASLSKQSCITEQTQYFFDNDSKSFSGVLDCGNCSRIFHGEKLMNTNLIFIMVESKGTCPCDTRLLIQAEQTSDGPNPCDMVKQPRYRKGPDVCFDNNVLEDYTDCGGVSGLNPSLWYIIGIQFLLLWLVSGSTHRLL
# procedure text: Human α2δ-1 subunit of Cav2.2 calcium channel assay ([3H]-gabapentin binding)
# measurement setup: binding to the α2δ-1 subunit of voltage-gated calcium channels, expressed as Ki class; + also covers inhibition between 1% and 50%
# Experimental: Human α2δ-1 Subunit of Cav2.2 Calcium Channel Assay Human α2δ-1 enriched membranes (2.5 μg) were incubated with 15 nM of radiolabeled [^3H]-Gabapentin in assay buffer containing Hepes-KOH 10 mM. pH 7.4. NSB (non specific binding) was measured by adding 10 μM pregabalin. […] Filter plates were dried at 60° C. for 1 h and 30 μL of scintillation cocktail were added to each well before radioactivity reading. Readings were performed in a Trilux 1450 Microbeta radioactive counter (Perkin Elmer).
metric name: Ki

                                    compound             val
 0  CCC[C@H](c1nc2ccc(F)cc2c(=O)n1C)N1CCN[C@@H](C)CC1 [Example 256]  500 to 5000 nM
 1  CCC[C@@H](c1nc2ncc(Br)cc2c(=O)n1CC)N1CCN(C)C[C@H](C)C1 [Example 188]       > 5000 nM
 2  CCCC(c1nc2cccnc2c(=O)n1CC)N1CCCN(CC)CC1 (centres unmarked) [Example 88]       > 5000 nM
 3  CCC[C@@H](c1nc2cc(F)c(Cl)cc2c(=O)n1CC)N1CCNC[C@@H](C)C1 [Example 121]       > 5000 nM
 4  CCC[C@H](c1nc2ccc(F)cc2c(=O)n1CCC)N1CCCN(C)CC1 [Example 211]        < 500 nM
 5  CCC[C@H](c1nc2ccc(F)cc2c(=O)n1CC)N1CCCN(CC)CC1 [Example 210]        < 500 nM
 6  CCC[C@H](c1nc2ncc(F)cc2c(=O)n1CC1CC1)N1CCN[C@H](C)CC1 [Example 196]        < 500 nM
 7  CCC[C@@H](c1nc2ccncc2c(=O)n1CC)N1CCCN(C)CC1 [Example 174]       > 5000 nM
 8  CCC[C@H](c1nc2ccc(F)cc2c(=O)n1CC(C)C)N1CCCN(C)CC1 [Example 214]        < 500 nM
 9  CCCC(c1nc2ccc(Br)cc2c(=O)n1CC)N1CCCN(Cc2ccccc2)CC1 (centres unmarked) [Example 6]       > 5000 nM
10  CCC[C@H](c1nc2c(F)cc(F)cc2c(=O)n1CC)N1CCN[C@H](C)CC1 [Example 250]       > 5000 nM
11  CCCC(c1nc2ncc(F)cc2c(=O)n1CC)N1CCCN(C)CC1 (centres unmarked) [Example 182]        < 500 nM
12  CCC[C@@H](c1nc2ccc(Br)cc2c(=O)n1CCC)N1CCNC[C@@H](C)C1 [Example 70]       > 5000 nM
13  CCCC(c1nc2ncc(Br)cc2c(=O)n1CCC)N1CCCN(C)CC1 (centres unmarked) [Example 181]        < 500 nM
14  CCC[C@@H](c1nc2ccc(OC)cc2c(=O)n1CC)N1CCCN(C)CC1 [Example 16]       > 5000 nM
15  CCC[C@H](c1nc2ncc(Br)cc2c(=O)n1CC)N1CCN(C)C[C@H](C)C1 [Example 187]        < 500 nM
16  CCC[C@H](c1nc2ccc(Br)cc2c(=O)n1CCC)N1CCNC[C@H](C)C1 [Example 67]        < 500 nM
17  CCC[C@H](c1nc2ccc(Br)cc2c(=O)n1CC)N1CCN(C)C[C@@H](COC)C1 [Example 106]        < 500 nM
18  CCC[C@@H](c1nc2ccncc2c(=O)n1CC)N1CCN(C)C[C@H](C)C1 [Example 170]  500 to 5000 nM
19  CCC[C@H](c1nc2ccc(I)cc2c(=O)n1CC)N1CCCN(C)CC1 [Example 213]        < 500 nM
20  CCC[C@@H](c1nc2cc(Cl)c(Cl)cc2c(=O)n1CC)N1CCN(C)C[C@@H](C)C1 [Example 134]       > 5000 nM
21  CCC[C@H](c1nc2ccc(F)cc2c(=O)n1CC1CC1)N1CCCN(C)CC1 [Example 219]        < 500 nM
22  CCC[C@H](c1nc2ccc(F)cc2c(=O)n1CC)N1CCCNC(C)(C)C1 [Example 253]       > 5000 nM
23  CCC[C@@H](c1nc2ccc(Cl)cc2c(=O)n1CC)N1CCN(C)C[C@@H](C)C1 [Example 74]       > 5000 nM
24  CCC[C@H](c1nc2ccc(F)cc2c(=O)n1C(C)C)N1CCCN(C)CC1 [Example 222]       > 5000 nM
25  CCCC(c1nc2cc(Br)ccc2c(=O)n1CC)N1CCCNCC1 (centres unmarked) [Example 4]        < 500 nM
26  CCC[C@H](c1nc2ccc(Br)cc2c(=O)n1CC)N1CCN(C)C[C@@H](C)C1 [Example 35]        < 500 nM
27  CCCC(c1nc2cc(C#N)ccc2c(=O)n1CC)N1CCCN(C)CC1 (centres unmarked) [Example 9]        < 500 nM
28  CCCC(c1nc2c(Cl)cc(Br)cc2c(=O)n1CC)N1CCCN(C)CC1 (centres unmarked) [Example 49]       > 5000 nM
29  CCCC(c1nc2cc(Br)c(F)cc2c(=O)n1CC)N1CCCN(CC)CC1 (centres unmarked) [Example 63]        < 500 nM
30  CCCC(c1nc2c(F)cc(OC)cc2c(=O)n1CC)N1CCCN(C)CC1 (centres unmarked) [Example 117]  500 to 5000 nM
31  CCC[C@H](c1nc2ccc(F)cc2c(=O)n1CC)N1CCCN(C)CC1 [Example 209]        < 500 nM
32  CCC[C@H](c1nc2ccc(F)cc2c(=O)n1CCC(C)C)N1CCCN(C)CC1 [Example 226]       > 5000 nM
33  CCCC(c1nc2c(F)cc(Br)cc2c(=O)n1CC)N1CCCN(CC)CC1 (centres unmarked) [Example 57]  500 to 5000 nM
34  CCC[C@@H](c1nc2ccc(Br)cc2c(=O)n1CC)N1CCN(C)C[C@H](COC)C1 [Example 107]  500 to 5000 nM
